Target: Quinolone resistance protein NorA (Staphylococcus aureus)
Test: Inhibition of NorA in Staphylococcus aureus SA-1199B expressing GrlA A116E mutant assessed as minimal potentiating drug concentration causing 8 fold reduction in ciprofloxacin MIC by microdilution method based Checkerboard assay

| Structure smiles | Activity |
| --- | --- |
| CCCOc1ccc(-c2cc(OCCN3CCNCC3)c3ccc(OC)cc3n2)cc1 | 6.25 µg/mL |
| CCCOc1ccc(-c2cc(OCCN3CCCCC3)c3cc(OC)ccc3n2)cc1 | 0.78 µg/mL |
| CCCOc1ccc(-c2cc(OCCN(CC)CC)c3c(OC)cc(OC)cc3n2)cc1 | 1.56 µg/mL |
| CCCOc1ccc(-c2cc(OCCCN(C)C)c3ccc(OC)cc3n2)cc1 | 6.25 µg/mL |

----------
System: Staphylococcus aureus
Experiment: Antimicrobial activity against Staphylococcus aureus ATCC 25923 by microdilution method
Assay type: organism-based
Conditions: in vivo
Value type: MIC (µg/mL)

| Molecule | Value type | Result unit | Qualifier sign | Value |
| --- | --- | --- | --- | --- |
| CCCOc1ccc(-c2cc(OCCN3CCNCC3)c3cccc(OC)c3n2)cc1 | MIC | µg/mL | > | 100 |
| CCCOc1ccc(-c2cc(OCCN(CC)CC)c3cc(OC)c(OC)cc3n2)cc1 | MIC | µg/mL | = | 100 |
| COC(=O)[C@H]1[C@H]2C[C@@H]3c4[nH]c5cc(OC)ccc5c4CCN3C[C@H]2C[C@@H](OC(=O)c2cc(OC)c(OC)c(OC)c2)[C@@H]1OC [RESERPINE] | MIC | µg/mL | > | 100 |
| CCCOc1ccc(-c2cc(OCCN(CC)CC)c3cc(OC)ccc3n2)cc1 | MIC | µg/mL | = | 50 |

----------
System: Staphylococcus aureus
Assay: Antimicrobial activity against NorA deficient Staphylococcus aureus SA-K1902 by microdilution method
Format: organism-based
Conditions: in vivo
Below, each entry is listed with its recorded MIC.
Value type: MIC (µg/mL)

| Structure smiles | Tgt | Value type | Value |
| --- | --- | --- | --- |
| CCCOc1ccc(-c2cc(OCCN3CCc4cc(OC)c(OC)cc4C3)c3cc(OC)c(OC)cc3n2)cc1 | Staphylococcus aureus | MIC | 100 |
| CCCOc1ccc(-c2cc(OCCN(CC)CC)c3c(OC)cc(OC)cc3n2)cc1 | Staphylococcus aureus | MIC | 25 |
| CCCOc1ccc(-c2cc(OCCN(CC)CC)c3ccccc3n2)cc1 | Staphylococcus aureus | MIC | 50 |
| CCCOc1ccc(-c2cc(OCCN3CCCCC3)c3cc(OC)ccc3n2)cc1 | Staphylococcus aureus | MIC | 25 |

----------
Target: Quinolone resistance protein NorA (Staphylococcus aureus) (UniProt P0A0J7)
Assay: Inhibition of NorA in Staphylococcus aureus SA-1199B expressing GrlA A116E mutant assessed as reduction in EtBr efflux at 50 uM incubated for 5 mins by fluorescence based assay
1 means recorded inhibition is 90% or above; 0 means it is below 90%.

| Structure smiles | Classification |
| --- | --- |
| CCCOc1ccc(-c2cc(OCCN3CCCCC3)c3ccc(OC)cc3n2)cc1 | 1 |
| CCCOc1ccc(-c2cc(OCCCl)c3ccc(OC)cc3n2)cc1 | 0 |
| CCCOc1ccc(-c2cc(OCCCl)c3cc(OC)ccc3n2)cc1 | 0 |
| CCCOc1ccc(-c2cc(OCCN3CCCCCC3)c3cc(OC)c(OC)cc3n2)cc1 | 0 |
| CCCOc1ccc(-c2cc(OCCN3CCCCC3)c3c(OC)cc(OC)cc3n2)cc1 | 0 |
| C=COc1cc(-c2ccc(OCCC)cc2)nc2c(OC)cccc12 | 0 |
| CCCOc1ccc(-c2cc(OCCN3CCNCC3)c3ccc(OC)cc3n2)cc1 | 1 |
| CCCOc1ccc(-c2cc(OCCN3CCc4cc(OC)c(OC)cc4C3)c3cc(OC)cc(OC)c3n2)cc1 | 0 |

Data provenance: ChEMBL document CHEMBL4145675
